# Tested on: batrachotoxin (BTX) binding site of the sodium channel
# measurement.notes: Affinity to the batrachotoxin (BTX) binding site of the sodium channel
# Set-up: species or system rat
# assay.context: [3H]-batrachotoxinin A20 α-benzoate 10 nM; synaptosomes from rat cerebral cortex; test concentration not given
We use 60% as the dividing line for BTX inhibition (rat) (% inhibition): on or above the line is Satisfied, below is Not satisfied.

compound	discrete.label
CCCCN(C(=O)c1cccc(Cl)c1)c1nc2n(c1C(=O)NCc1cccc(C)c1)CCCC2	Not satisfied
CCCCN(C(=O)c1cccc(Cl)c1)c1nc2n(c1C(=O)NCCSCc1c(Cl)cccc1Cl)CCCC2	Satisfied
CN(C(=O)c1cccc2ccccc12)c1nc2n(c1C(=O)NCc1cc(C(F)(F)F)cc(C(F)(F)F)c1)CCCC2	Satisfied
CN(C(=O)c1cccc(Cl)c1)c1nc2n(c1C(=O)N1CCN(c3cccc(C(F)(F)F)c3)CC1)CCCC2	Not satisfied
CCCCN(C(=O)c1ccc(F)c(F)c1)c1nc2n(c1C(=O)NCCC(C)(C)C)CCCC2	Not satisfied

Request: Check if BTX inhibition (rat) (% inhibition) >= 60% (inclusive). Item: CC(C)CC(NC(=O)c1c(N(C)C(=O)c2cccc3ccccc23)nc2n1CCCC2)C(=O)OCc1ccccc1 (stereo not shown)
Result: Not satisfied
